experiment: promoters of myeloid differentiation in arrested cells, primary screen, cell-based, GFP/MAC1 double positive, flow cytometry, validation set (AID 588685); settings: ER-HoxA9 marrow cells, active compounds read high, normalized: vehicle 0, fulvestrant 100;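 note: compound exposure lasts four days before antibody staining and flow analysis; 0% = DMSO wells and 100% = 5 µM fulvestrant positive control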
assay-readout: differentiation response (%)
Please give a number only; it is taken to be in %.

Quick one: differentiation response of "CCN(Cc1cnn(C)c1)Cc1nc(C(c2ccccc2)c2ccccc2)no1" ?
16.7

Same for Cc1ccc2c(c1)OC(=O)CC2c1ccccc1 (stereo not drawn)
-11.5

Same for "C=C(CC)C(=O)c1ccc(OCC(=O)O)c(Cl)c1Cl"
1.64

Same for "CNCCC=C1c2ccccc2CCc2ccccc21"
-13.1

Same for "COCCOC(=O)c1c(C)oc2ccc(OCc3cc(C(=O)OC)oc3C)cc12"
-11.5

Same for "Cc1oc(/C=N/NC(=O)CC2(C)OCCO2)cc1Br"
-0.18

Same for "NC(=O)OCC(COC(N)=O)c1ccccc1"
-1.82

Same for "NS(=O)(=O)c1cc2c(cc1Cl)NC(CSCc1ccccc1)=NS2(=O)=O"
13.9

Same for "CCc1cc(=O)oc2cc(OCC=C(C)C)ccc12"
-18.4

Same for "COc1cc2c(cc1OC)-c1cc(OCc3ccccc3Cl)nc(=O)n1CC2"
-18

Same for "OC[C@H]1O[C@@H](n2cnc3c(NC4CCCC4)ncnc32)[C@H](O)[C@@H]1O"
-8.27

Same for "Nc1cccc(C(=O)O)c1"
-0.82

Same for "CC(C)(C)C(=O)NC(=S)Nc1sc2c(c1C(N)=O)CCC2"
-29.6

Same for "CCCCC(=O)O[C@]1(C(=O)CO)CC[C@H]2[C@@H]3CCC4=CC(=O)CC[C@]4(C)[C@H]3[C@@H](O)C[C@@]21C"
-6.66

Same for "Cc1ccc(C(=O)NC(=S)NCCCN2CCOCC2)cc1"
-0.82

Same for "COc1ccc(-c2cc3cc(OC)c(OC)cc3c(C)n2)cc1"
-8.27

Same for "CC(=O)C1=C(NC(=O)c2ccc(C(F)(F)F)cc2)C[C@@H]2[C@H]1C2(C)C"
-17.7

Same for COc1ccc(CC(=O)N2CC3(C)CC2CC(C)(C)C3)cc1OC (stereo not drawn)
5.6

Same for "COC(=O)c1cc(OC)c(OC)c(OC)c1[N+](=O)[O-]"
-21.2

Same for "CC(C)C[C@H](NC(=O)NC(C)C)C(=O)O"
-10.4

Same for "COc1ccc(C(=O)Nc2ccc(OC)c([N+](=O)[O-])c2)cc1Br"
-10.4

Same for "Cc1ccc2c(c1)c1c(n2C)C(=O)CCC1"
-8.96

Same for CCOc1cccc(N2C(=O)CC(N(CCc3ccc(OC)c(OC)c3)C(=O)CC)C2=O)c1 (stereo not drawn)
-18

Same for "COc1ccc2cc(CCC(C)=O)ccc2c1"
0

Same for COc1ccc(N2C(=O)C3CCCN3C2=O)cc1 (stereo not drawn)
2.4

Same for "Cc1cccc(C)c1NS(=O)(=O)c1ccc(NC(=O)c2ccc(Cl)c([N+](=O)[O-])c2)cc1"
13.1

Same for "C=C(C)COc1ccc(-c2nc(N)ncc2-c2ccc(OC)cc2)c(O)c1"
-9.53

Same for "COC(=O)c1cc(-c2c(C)oc3cc(OC)ccc3c2=O)c(C)o1"
18.4

Same for CC1(C)S[C@@H]2[C@H](NC(=O)C(C(=O)O)c3ccccc3)C(=O)N2[C@H]1C(=O)O (stereo partly drawn)
1.41

Same for "COC(=O)c1[nH]c2ccccc2c1NC(=O)CN1CCN(C/C=C/c2ccccc2)CC1"
-13.1

Same for "COc1cccc(OC)c1C(=O)Nc1nc2ccc([N+](=O)[O-])cc2s1"
-3.11

Same for "CCOC(=O)C1(CCCc2ccccc2)CCN(C2CCN(C(C)=O)CC2)CC1"
-13.1

Same for "O=[N+]([O-])c1cc(/C=N/n2cnnc2)ccc1N1CCCC1"
-8.27

Same for "COC(=O)c1ccccc1OCCOCCOc1cccc2ccc(C)nc12"
-13.1

Same for "Cc1cc(-c2nn(-c3ccccc3F)cc2CN2CCC(O)CC2)c(C)s1"
-30.9

Same for "COc1ccc([C@@H]2Sc3ccccc3N(CCN(C)C)C(=O)[C@@H]2OC(C)=O)cc1"
-8.27

Same for O=C(Nc1ccccc1)OCC1CCCN2CCCCC12 (stereo not drawn)
63

Same for Cc1c(OCC(=O)NC(Cc2c[nH]c3ccc(O)cc23)C(=O)O)ccc2c3c(c(=O)oc12)CCC3 (stereo not drawn)
-22.8

Same for Cn1c(=O)c2c(ncn2CC(O)CO)n(C)c1=O (stereo not drawn)
-8.27

Same for "CC(C)c1ccc2[nH]c3c(c2c1)CCCC3=O"
-1.65

Same for "CC[C@H]1OC(=O)[C@H](C)[C@@H](O[C@H]2C[C@@](C)(OC)[C@@H](O)[C@H](C)O2)[C@H](C)[C@@H](O[C@@H]2O[C@H](C)C[C@H](N(C)C)[C@H]2O)[C@](C)(O)C[C@@H](C)[C@@H]2N[C@@H](COCCOC)O[C@H]([C@H]2C)[C@]1(C)O"
-4.91

Same for "Cc1oc2c(CN3CCCC3)c(O)ccc2c(=O)c1-c1ccc(Cl)cc1"
-1.05

Same for "Cc1cc(C(C)(C)C)c(O)c(C)c1CC1=NCCN1"
7.37

The values you see were collected from PubChem BioAssay.
